Reference source: patent US9216968B2

- target-under-test: human mPGES-1 (Homo sapiens (Human))
- Sequence (O14684 whole entry): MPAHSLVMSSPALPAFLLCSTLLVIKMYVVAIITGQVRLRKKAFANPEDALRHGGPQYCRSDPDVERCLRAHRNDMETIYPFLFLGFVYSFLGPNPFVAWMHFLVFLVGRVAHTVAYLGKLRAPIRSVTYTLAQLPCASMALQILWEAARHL
- test-method-notes: mPGES-1 inhibiting activity (microsome fractions, PGE2 by HTRF)
- Format: biochemical
- condition-parameters: microsomes from CHO-K1 cells transfected with human mPGES-1; PGH2 1 μM, 4° C., 60 seconds; read-out: mPGES-1 Inhibition IC50
- Method: mPGES-1 microsome fractions were prepared from CHO-K1 cells transiently transfected with plasmid encoding the human mPGES-1cDNA. […] PGE2 production in the enzyme reaction aliquot was measured using HTRF kit (Cisbio International, catalogue #62P2APEC). […] IC50 value was calculated by standard method.
pIC50: −log10 of the molar value. Structures can show the parent of a compound that is named as a salt.
observation-type: pIC50

Answered examples (4):
* Cc1c(Cl)cccc1NC(=O)c1cc(NC(=O)c2c(Cl)cccc2Cl)cc2[nH]c(N(C)C)nc12 [Example 183, hydrochloride] | 8.72
* COCc1nc2c(C(=O)Nc3cccc(Cl)c3C)cc(NC(=O)c3c(Cl)cccc3Cl)cc2[nH]1 [Example 98, hydrochloride] | 8.22
* COCc1nc2c(C(=O)Nc3ccc(C)cc3C)cc(NC(=O)c3ccccc3C(F)(F)F)cc2[nH]1 [Example 29, hydrochloride] | 8.46
* Cc1c(Cl)cccc1NC(=O)c1cc(NC(=O)c2ccccc2C(F)(F)F)cc2[nH]c(NCCOC(C)(C)C)nc12 [Example 176, hydrochloride] | 9.52

a. Cc1c(Cl)cccc1NC(=O)c1cc(NC(=O)c2c(F)cccc2Cl)cc2[nH]c(C3CCCC3)nc12 [Example 126, hydrochloride]
b. Cc1c(Cl)cccc1NC(=O)c1cc(NC(=O)c2cc(Cl)ccc2Cl)cc2[nH]c([C@H]3CCCO3)nc12 [Example 129, hydrochloride]
c. Cc1c(Cl)cccc1NC(=O)c1cc(NC(=O)c2cc(Cl)ccc2Cl)cc2[nH]c(C3CC3)nc12 [Example 208, hydrochloride]
query: With regard to pIC50, arrange the entries in ascending order, please. To answer, arrange all of the labels according to the requested order.
result: b, a, c
(b: 7.23, a: 8.25, c: 9.15)

1. Cc1c(Cl)cccc1NC(=O)c1cc(NC(=O)c2cc(Cl)ccc2Cl)cc2[nH]c(C(C)(C)C)nc12 [Example 87, hydrochloride]
2. Cc1nc2c(C(=O)NC3CCCC3)cc(NC(=O)c3ccccc3C(F)(F)F)cc2[nH]1 [Example 15]
query: Exercise: compare 1 and 2 ; which one has the greater pIC50? Identify your pick by its label.
result: 1
(1: 8.24, 2: 7.43)

I. COC(C)(C)CNc1nc2c(C(=O)Nc3cccc(Cl)c3C)cc(NC(=O)c3ccccc3C(F)(F)F)cc2[nH]1 [Example 177, hydrochloride]
II. Cc1c(Cl)cccc1NC(=O)c1cc(NC(=O)c2ccccc2C(F)(F)F)cc2[nH]c(N3CCC3)nc12 [Example 165, hydrochloride]
query: // compare: I vs II , metric pIC50, want the smaller Answer with the label corresponding to your selection.
result: I
(I: 8.08, II: 8.89)

====

- target-under-test: human mPGES-1 (Homo sapiens (Human))
- test-method-notes: mPGES-1 inhibiting activity (microsome fractions, PGE2 by HTRF)
- Format: biochemical
- condition-parameters: microsomes from CHO-K1 cells transfected with human mPGES-1; PGH2 1 μM, 4° C., 60 seconds; read-out: mPGES-1 Inhibition IC50
Where a name gives a salt, the structure may show the parent alone.
observation-type: IC50 (nM)

* Cc1c(Cl)cccc1NC(=O)c1cc(NC(=O)c2c(F)cccc2Cl)cc2[nH]c(NC[C@@H]3CCCO3)nc12 [Example 198, hydrochloride] | 6

1. Cc1ccc(NC(=O)c2cc(NC(=O)c3cc(Cl)ccc3Cl)cc3[nH]c(C4CC4)nc23)cc1Cl [Example 209, hydrochloride]
2. CCCCOc1ccc(Cl)c(C(=O)Nc2cc(C(=O)Nc3cccc(Cl)c3C)c3nc(COC)[nH]c3c2)c1 [Example 247, hydrochloride]
query: // pick larger IC50 from pair: 1 vs 2 To answer, give the label that identifies your chosen option.
result: 2

====

The following compounds each carry a recorded IC50 for UniProtKB O14684.
Structures can show the parent of a compound that is named as a salt.
observation-type: IC50 (nM)

Worked examples, 5 compounds total:
* COC1CN(c2nc3c(C(=O)Nc4cccc(Cl)c4C)cc(NC(=O)c4ccccc4C(F)(F)F)cc3[nH]2)C1 [Example 166, hydrochloride] | 3.2
* COCc1nc2c(C(=O)Nc3cccc(Cl)c3C)cc(NC(=O)c3c(F)cccc3Br)cc2[nH]1 [Example 103, hydrochloride] | 2.8
* COCc1nc2c(C(=O)Nc3cccc(Br)c3C)cc(NC(=O)c3ccccc3C(F)(F)F)cc2[nH]1 [Example 38] | 6.6
* CCCNC(=O)c1cc(NC(=O)c2ccccc2C(F)(F)F)cc2[nH]c(COC)nc12 [Example 215, hydrochloride] | 140
* COCc1nc2c(C(=O)Nc3cccc(Cl)c3C)cc(NC(=O)c3c(C)cccc3Cl)cc2[nH]1 [Example 104, hydrochloride] | 2.9

A. Cc1ccc(NC(=O)c2cc(NC(=O)c3cc(Cl)ccc3Cl)cc3[nH]c(N(C)C)nc23)cc1Cl [Example 207, hydrochloride]
B. Cc1c(Cl)cccc1NC(=O)c1cc(NC(=O)c2ccccc2C(F)(F)F)cc2[nH]c(NC3CCCC3)nc12 [Example 141, hydrochloride]
C. CCc1nc2c(C(=O)Nc3cccc(Cl)c3C)cc(NC(=O)c3ccccc3C(F)(F)F)cc2[nH]1 [Example 17]
D. COCc1nc2c(C(=O)Nc3cccc(Cl)c3C)cc(NC(=O)c3cc(Cl)ccc3Br)cc2[nH]1 [Example 107, hydrochloride]
E. Cc1c(Cl)cccc1NC(=O)c1cc(NC(=O)c2c(F)cccc2Cl)cc2[nH]c(NCCOC(C)(C)C)nc12 [Example 195, hydrochloride]
query: List these items ordered by IC50, big to small. Record the ranking as a list of labels in the requested order.
result: C, A, E, D, B
(C: 9.8 nM, A: 3.6 nM, E: 2.3 nM, D: 1.5 nM, B: 0.4 nM)

====

- target-under-test: human mPGES-1 (Homo sapiens (Human))
Where a name gives a salt, the structure may show the parent alone.
observation-type: IC50 (nM)

- Cc1c(Cl)cccc1NC(=O)c1cc(NC(=O)c2ccccc2C(F)(F)F)cc2[nH]c(N3CC[C@H](O)C3)nc12 [Example 150, hydrochloride]: 2.1
- COCc1nc2c(C(=O)Nc3ccccc3Cc3ccccc3)cc(NC(=O)c3ccccc3C(F)(F)F)cc2[nH]1 [Example 229, hydrochloride]: 2.3
- Cc1c(Cl)cccc1NC(=O)c1cc(NC(=O)c2ccccc2C(F)(F)F)cc2[nH]c(C3CN(C(=O)OC(C)(C)C)C3)nc12: 3.2
- COCC(C)(C)CNc1nc2c(C(=O)Nc3cccc(Cl)c3C)cc(NC(=O)c3c(F)cccc3Cl)cc2[nH]1 [Example 196, hydrochloride]: 6.5
- Cc1ccc(NC(=O)c2cc(NC(=O)c3ccccc3C(F)(F)F)cc3[nH]c(C(C)(C)C)nc23)cc1Cl [Example 86, hydrochloride]: 1
- CC(=O)OCc1nc2c(C(=O)Nc3cccc(Cl)c3C)cc(NC(=O)c3ccccc3C(F)(F)F)cc2[nH]1: 5.6
- COCCOCc1nc2c(C(=O)Nc3cccc(Cl)c3C)cc(NC(=O)c3ccccc3C(F)(F)F)cc2[nH]1 [Example 74, hydrochloride]: 71.3
- Cc1c(Cl)cccc1NC(=O)c1cc(NC(=O)c2cc(Cl)ccc2Cl)cc2[nH]c(N(C)C)nc12 [Example 185, hydrochloride]: 4.5
- COCCc1nc2c(C(=O)Nc3cccc(Cl)c3C)cc(NC(=O)c3ccccc3C(F)(F)F)cc2[nH]1 [Example 81, hydrochloride]: 5
- COCc1nc2c(C(=O)Nc3cccc(Cl)c3C)cc(NC(=O)c3cc(Br)ccc3Cl)cc2[nH]1 [Example 106, hydrochloride]: 4.5

I. COCC(C)(C)CNc1nc2c(C(=O)Nc3cccc(Cl)c3C)cc(NC(=O)c3cc(Cl)ccc3Cl)cc2[nH]1 [Example 190, hydrochloride]
II. COCc1nc2c(C(=O)Nc3ccccc3)cc(NC(=O)c3ccccc3C(F)(F)F)cc2[nH]1 [Example 214, hydrochloride]
III. COCc1nc2c(C(=O)Nc3ccc4c(c3)CCC4)cc(NC(=O)c3ccccc3C(F)(F)F)cc2[nH]1 [Example 33, hydrochloride]
IV. Cc1nc2c(C(=O)Nc3cccc(Cl)c3C)cc(NC(=O)c3ccccc3C(F)(F)F)cc2o1
query: Output the entries ranked by IC50 from maximum down to minimum. Output spec: a listing of the labels in the requested order.
result: IV, II, III, I

P. COCc1nc2c(C(=O)Nc3cccc(Cl)c3C)cc(NC(=O)c3ccc(F)cc3Cl)cc2[nH]1 [Example 93, hydrochloride]
Q. COCc1nc2c(C(=O)Nc3cccc(Cl)c3C)cc(NC(=O)c3cc(C(F)(F)F)ccc3C(F)(F)F)cc2[nH]1 [Example 110, hydrochloride]
query: I'd appreciate it if you could identify which of P and Q has the greater IC50. Lab log: write the label of the selected item as the result.
result: P
(P: 4.2 nM, Q: 2.6 nM)
